System: HeLa spheroids
assay-comment: Cytotoxicity, three-dimensional (spheroid) assay
Assay type: cell-based
stated-conditions: human, 10 min
Non-standard residues stand in square brackets, D forms with d. Residues, ends and D or L forms follow the SMILES beside them. Orn = NCCC[C@H](N)C(=O)O
endpoint-name: IC50 (µM)

>>> measured_number("CC(C)C[C@@H]1NC(=O)[C@H](CCCN)NC(=O)[C@H](C(C)C)NC(=O)[C@@H]2CCCN2C(=O)[C@@H](Cc2ccccc2)NC(=O)[C@H](CC(C)C)NC(=O)[C@H](CCCN)NC(=O)[C@H](C(C)C)NC(=O)[C@@H]2CCCN2C(=O)[C@@H](Cc2ccccc2)NC1=O [Gramicidin S, gramicidin S] (cyclo(V[Orn]L[dF]PV[Orn]L[dF]P))")
2.9

###

assay-comment: Cytotoxicity, two-dimensional (monolayer) assay
Assay type: cell-based
stated-conditions: human, HEK-293 cells, 2D monolayer; HEK-293 monolayer; 24 hrs incubation; necrotic cells by PI/Hoechst 33342 imaging; Table S1 series (with LMB033); ± SEM, n=4; read-out: IC50, cytotoxic activity, two-dimensional assay
Non-standard residues stand in square brackets, D forms with d. Residues, ends and D or L forms follow the SMILES beside them. Orn = NCCC[C@H](N)C(=O)O
endpoint-name: IC50 at 24 h (µM)

>>> measured_number("CC(C)C[C@@H]1NC(=O)[C@H](CCCN)NC(=O)[C@H](C(C)C)NC(=O)[C@@H]2CCCN2C(=O)[C@@H](Cc2ccccc2)NC(=O)[C@H](CC(C)C)NC(=O)[C@H](CCCN)NC(=O)[C@H](C(C)C)NC(=O)[C@@H]2CCCN2C(=O)[C@@H](Cc2ccccc2)NC1=O [Gramicidin S, gramicidin S] (cyclo(V[Orn]L[dF]PV[Orn]L[dF]P))")
8.3

###

assay-comment: Cytotoxicity, three-dimensional (spheroid) assay
Format: cell-based
stated-conditions: human; HEK-293 spheroids; 24 hrs incubation; calcein-AM/PI/Hoechst 33342 confocal imaging; Table S3 (with LMB033); ± SEM, n=5; read-out: IC50, cytotoxic activity, three-dimensional (spheroid) assay
Non-standard residues stand in square brackets, D forms with d. Residues, ends and D or L forms follow the SMILES beside them. Orn = NCCC[C@H](N)C(=O)O
endpoint-name: IC50 at 24 h

>>> result("CC(C)C[C@@H]1NC(=O)[C@H](CCCN)NC(=O)[C@H](C(C)C)NC(=O)[C@@H]2CCCN2C(=O)[C@@H](Cc2ccccc2)NC(=O)[C@H](CC(C)C)NC(=O)[C@H](CCCN)NC(=O)[C@H](C(C)C)NC(=O)[C@@H]2CCCN2C(=O)[C@@H](Cc2ccccc2)NC1=O [Gramicidin S, gramicidin S] (cyclo(V[Orn]L[dF]PV[Orn]L[dF]P))")
"12.9 µM"
